Listed here are substances together with their documented Average Luminescence (RLU/CFU).
Test system: NanoLuc
Assay: NanoLuc luciferase reporter expression from constitutive promoters and RBSs integrated with pNBU2
Format: cell-based, B. thetaiotaomicron
Conditions: RBS combined with promoter PBT1311, NanoLuc reporter, three biological replicates
observable: Average Luminescence (RLU/CFU)

>>> experimental_result("C19: RBS, SEQ ID NO: 48 (DNA TCCCGCATTTTAAAATAAAATAAATTATTGCTTTAGTTAAACGAAT; chemistry not fully specified)")
0.01835
>>> experimental_result("A12: RBS, SEQ ID NO: 56 (DNA TCCCGCATTTTAAAATAAAATAAATTATTGTTTTAATTAAACGAAT; chemistry not fully specified)")
0.01552
>>> experimental_result("A9: RBS, SEQ ID NO: 46 (DNA TCCCGCATTTTAAAATAAAATAAATTATTGTTTTACTTAAACGAAT; chemistry not fully specified)")
0.0186
>>> experimental_result("A32: RBS, SEQ ID NO: 104 (DNA TCCCGCATTTTAAAATAAAATAAATTATTCTTTTAGTTAAACGAAT; chemistry not fully specified)")
0.005311
>>> experimental_result("A4: RBS, SEQ ID NO: 29 (DNA TCCCGCATTTTAAAATAAAATAAATTATTAATTTAATTAAACGAAT; chemistry not fully specified)")
0.02664
>>> experimental_result("B28: RBS, SEQ ID NO: 77 (DNA TCCCGCATTTTAAAATAAAATAAATTATGTAGTTAATTAAACGAAT; chemistry not fully specified)")
0.009593
>>> experimental_result("C37: RBS, SEQ ID NO: 102 (DNA TCCCGCATTTTAAAATAAAATAAATTATTGGTTTAGTTAAACGAAT; chemistry not fully specified)")
0.005598
>>> experimental_result("A18: RBS, SEQ ID NO: 69 (DNA TCCCGCATTTTAAAATAAAATAAATTATTCATTTATTTAAACGAAT; chemistry not fully specified)")
0.01237
>>> experimental_result("B13: RBS, SEQ ID NO: 25 (DNA TCCCGCATTTTAAAATAAAATAAATGATTTAATTAATTAAACGAAT; chemistry not fully specified)")
0.02746
>>> experimental_result("C51: RBS, SEQ ID NO: 136 (DNA TCCCGCATTTTAAAATAAAATAAATTATTATTTTATTTAAACGAAT; chemistry not fully specified)")
0.0006273
>>> experimental_result("C3: RBS, SEQ ID NO: 14 (DNA TCCCGCATTTTAAAATAAAATAAATTATTACTTTAATTAAACGAAT; chemistry not fully specified)")
0.03677
>>> experimental_result("C6: RBS, SEQ ID NO: 19 (DNA TCCCGCATTTTAAAATAAAATAAATTATTAATTTAGTTAAACGAAT; chemistry not fully specified)")
0.03263
>>> experimental_result("C5: RBS, SEQ ID NO: 17 (DNA TCCCGCATTTTAAAATAAAATAAATTATTCATTTAATTAAACGAAT; chemistry not fully specified)")
0.03327
>>> experimental_result("A10: RBS, SEQ ID NO: 49 (DNA TCCCGCATTTTAAAATAAAATAAATTATTGCTTTAGTTAAACGAAT; chemistry not fully specified)")
0.01835
>>> experimental_result("A24: RBS, SEQ ID NO: 83 (DNA TCCCGCATTTTAAAATAAAATAAATTATTCTTTTACTTAAACGAAT; chemistry not fully specified)")
0.009158
>>> experimental_result("B32: RBS, SEQ ID NO: 92 (DNA TCCCGCATTTTAAAATAAAATAAATGATGTAGTTAATTAAACGAAT; chemistry not fully specified)")
0.007096
>>> experimental_result("A38: RBS, SEQ ID NO: 114 (DNA TCCCGCATTTTAAAATAAAATAAATTATTCCTTTAGTTAAACGAAT; chemistry not fully specified)")
0.003824
>>> experimental_result("B22: RBS, SEQ ID NO: 55 (DNA TCCCGCATTTTAAAATAAAATAAATCATGTAATTAATTAAACGAAT; chemistry not fully specified)")
0.01599
>>> experimental_result("C10: RBS, SEQ ID NO: 31 (DNA TCCCGCATTTTAAAATAAAATAAATTATTATTTTAATTAAACGAAT; chemistry not fully specified)")
0.02583
>>> experimental_result("A14: RBS, SEQ ID NO: 59 (DNA TCCCGCATTTTAAAATAAAATAAATTATTTCTTTATTTAAACGAAT; chemistry not fully specified)")
0.01475
>>> experimental_result("B41: RBS, SEQ ID NO: 139 (DNA TCCCGCATTTTAAAATAAAATAAATCATATAGTTAATTAAACGAAT; chemistry not fully specified)")
0.0001307
>>> experimental_result("C30: RBS, SEQ ID NO: 88 (DNA TCCCGCATTTTAAAATAAAATAAATTATTTATTTATTTAAACGAAT; chemistry not fully specified)")
0.008085
>>> experimental_result("B9: RBS, SEQ ID NO: 10 (DNA TCCCGCATTTTAAAATAAAATAAATTATCTAATTAATTAAACGAAT; chemistry not fully specified)")
0.04634
